Field: inhibition. Provide a value for each of the compounds that follow.
Assay: growth suppression of yeast trafficking mutant, preliminary HTS, modulators of trafficking downstream of Golgi apparatus project, 1536-format plate, OD 615 nm (AID 637); further: test concentration not given here
Conditions: yeast transport mutant growth, absorbance 615 nm, 18 h; active compounds read high
Give bare numbers, in %.

1. CCn1nc(C(=O)OCC(=O)c2cc(C)n(Cc3cccs3)c2C)c2ccccc2c1=O
26.6
2. O=C(Cn1cnc2c(cnn2-c2ccc(F)cc2)c1=O)N1CCCc2ccccc21
-2.79
3. COC(=O)c1ccccc1NC(=O)c1ccc(COc2ccccc2)o1
-4.1
4. O=C1CCc2nc3sc4c(c3c(=O)n2N1)CCCC4
-7.14
5. Nc1nnn(Cc2ccccc2)n1
-6.98
6. CCOC(=O)c1ccc(NC(=O)CCc2c(C)nc3ncnn3c2C)cc1
-5.56
7. O=C(NCCc1ccccn1)c1ccc(COc2ccccc2)o1
0.33
8. COc1ccc(-c2nnc(SCC(=O)N3CCCCC3)o2)cc1OC
-5.9

Please give inhibition for each item listed below.
1. O=c1c2c(nc3nc(COc4ccccc4)[nH]n13)CCC2
2. CCn1c(=N)n(CC(O)c2ccco2)c2ccccc21 (configuration not stated)

Reply text:
1. 3.23
2. 4.67

Hi there! I need inhibition for each item below, if you can.
1. C=CCn1c(N)c(C(=O)NCCC2=CCCCC2)sc1=S
2. COC(=O)Nc1ccc(S(=O)(=O)N2CCN(c3ccc(F)cc3)CC2)cc1

Reply text:
1: -0.95; 2: 9.84
